Measured optical density, listed per entry.
Molecular target: Mouse ACVR2A (mouse, UniProt P27038 20-135, limits assumed); further: test concentration or dose not given here
Sequence (P27038 20-135 limits assumed): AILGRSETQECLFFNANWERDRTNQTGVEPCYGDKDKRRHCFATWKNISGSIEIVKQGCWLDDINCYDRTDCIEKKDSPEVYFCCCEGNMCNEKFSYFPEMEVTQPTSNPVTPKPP
Experiment: ELISA
Please respond with the number in OD and leave the unit unwritten.

GET /values?readout=optical density&item= 365_D12 (antibody, V domains shown, VH/VL only) VH: EVQLLESGGGLVQPGGSLRLSCAASGFTFDSYGMNWVRQAPGKGLEWVSNINYNGGYTGYADSVKGRFTISRDNSKNTLYLQMNSLRAEDTAVYYCARSANWHDTALDYWGQGTLVTVSS VL: DIQMTQSPSSLSASVGDRVTITCRASQSIVTYLNWYQQKPGKAPKLVIYAATSRASGVPSRFSGSGSGTDFTLTISSLQPEDFATYYCQQSYDTPLTFGGGTKVEIK
2.61

Entry under review: 371_C06 (antibody, V domains shown, VH/VL only) VH: EVQLLESGGGLVQPGGSLRLSCAASGFTFSSYSMNWVRQAPGKGLEWVSSINYNGGYTSYADSVKGRFTISRDNSKNTLYLQMNSLRAEDTAVYYCARGATWHDTHLDYWGQGTLVTVSS VL: DIQMTQSPSSLSASVGDRVTITCRASQSISSYLNWYQQKPGKAPKLLIYAVTSRASGVPSRFSGSGSGTDFTLTISSLQPEDFATYYCQQSYDLPLTFGGGTKVEIK . Reported optical density?
3.01
